- Assayed system: T1, human MSLN on OVCAR3 tumor cells (human, UniProt Q13421 296-598)
- T1 construct: whole, on cells; also called human MSLN protein
- T1 sequence (Q13421 other isoform, or with tags, fused parts or gaps): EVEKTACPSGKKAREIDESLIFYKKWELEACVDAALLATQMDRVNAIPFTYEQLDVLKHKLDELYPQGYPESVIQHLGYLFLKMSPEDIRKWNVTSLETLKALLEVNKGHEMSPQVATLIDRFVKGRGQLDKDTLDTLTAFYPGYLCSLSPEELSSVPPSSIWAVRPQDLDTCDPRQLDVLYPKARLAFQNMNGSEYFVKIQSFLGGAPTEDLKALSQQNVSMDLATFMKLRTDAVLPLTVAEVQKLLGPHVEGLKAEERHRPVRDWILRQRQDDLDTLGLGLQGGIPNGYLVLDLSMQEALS
- Method notes: FACS, OVCAR3 cells
Property label: pEC50
Keep in mind that pEC50 stands for -log10 of concentration in molar terms.

Below, 4 binders whose answers are already recorded.
- F7.44.20-H10 (scFv, not shown: small tags and cut ends, also called S009-F7.44.20 humanized antibody VH2 + VL2) scFv: EVQLVQSGAEVKKPGASVKVSCKASGYTFTDYNMDWVRQAPGQGLEWMGDINPSTGGTIYNQKFNGRVTMTEDKSASTVYMELSSLRSEDTAVYYCARRRIGTGYFDVWGQGTTVTVSSGGGGSGGGGSGGGGSEIVLTQSPDFQSVTPKEKVTITCSASSSVISSYLSWYQQKPDQSPKLLIYRTSNLASGVPSRFSGSGSGTDYTLTINSLEAEDAATYYCHQWSSFPYTFGGGTKVEIK: 8.92
- F7.44.20-H5 (scFv, not shown: small tags and cut ends, also called S009-F7.44.20 humanized antibody VH1a + VL1) scFv: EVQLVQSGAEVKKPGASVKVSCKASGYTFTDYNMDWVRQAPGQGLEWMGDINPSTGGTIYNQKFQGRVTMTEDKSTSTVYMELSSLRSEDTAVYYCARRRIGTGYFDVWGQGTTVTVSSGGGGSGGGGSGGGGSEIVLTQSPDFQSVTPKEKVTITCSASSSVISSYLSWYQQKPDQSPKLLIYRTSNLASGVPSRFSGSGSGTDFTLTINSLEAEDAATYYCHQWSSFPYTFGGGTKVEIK: 9.00
- F7.44.20-H13 (scFv, not shown: small tags and cut ends, also called S009-F7.44.20 humanized antibody VH2a + VL1) scFv: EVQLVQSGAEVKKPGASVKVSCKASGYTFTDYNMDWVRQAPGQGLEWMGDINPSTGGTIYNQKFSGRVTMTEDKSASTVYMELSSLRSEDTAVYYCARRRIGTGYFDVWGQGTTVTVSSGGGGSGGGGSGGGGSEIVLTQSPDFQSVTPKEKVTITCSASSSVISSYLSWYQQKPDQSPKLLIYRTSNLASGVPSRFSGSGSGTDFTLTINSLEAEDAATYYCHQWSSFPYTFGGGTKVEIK: 8.88
- F7.44.20-H14 (scFv, not shown: small tags and cut ends, also called S009-F7.44.20 humanized antibody VH2a + VL2) scFv: EVQLVQSGAEVKKPGASVKVSCKASGYTFTDYNMDWVRQAPGQGLEWMGDINPSTGGTIYNQKFSGRVTMTEDKSASTVYMELSSLRSEDTAVYYCARRRIGTGYFDVWGQGTTVTVSSGGGGSGGGGSGGGGSEIVLTQSPDFQSVTPKEKVTITCSASSSVISSYLSWYQQKPDQSPKLLIYRTSNLASGVPSRFSGSGSGTDYTLTINSLEAEDAATYYCHQWSSFPYTFGGGTKVEIK: 8.74

API: the following record is the query input.
Problem: So what does the record say about pEC50 for F7.44.20-H8 (scFv, not shown: small tags and cut ends, also called S009-F7.44.20 humanized antibody VH1a + VL4) scFv: EVQLVQSGAEVKKPGASVKVSCKASGYTFTDYNMDWVRQAPGQGLEWMGDINPSTGGTIYNQKFQGRVTMTEDKSTSTVYMELSSLRSEDTAVYYCARRRIGTGYFDVWGQGTTVTVSSGGGGSGGGGSGGGGSEIVLTQSPATLSLSPGERATLSCSASSSVISSYLSWYQQKPGSSPRLLIYRTSNLASGIPARFSGSGSGTDYTLTISSLEPEDFAVYYCHQWSSFPYTFGGGTKVEIK ?
Solution: 8.98
